The measurements presented in this section are drawn from patent US20160368961A1.

target.of.assay: Somatostatin receptor SSTR3 (human recombinant, CHO-K1 cells) (human, UniProt P32745 1-418)
Sequence (P32745 whole entry): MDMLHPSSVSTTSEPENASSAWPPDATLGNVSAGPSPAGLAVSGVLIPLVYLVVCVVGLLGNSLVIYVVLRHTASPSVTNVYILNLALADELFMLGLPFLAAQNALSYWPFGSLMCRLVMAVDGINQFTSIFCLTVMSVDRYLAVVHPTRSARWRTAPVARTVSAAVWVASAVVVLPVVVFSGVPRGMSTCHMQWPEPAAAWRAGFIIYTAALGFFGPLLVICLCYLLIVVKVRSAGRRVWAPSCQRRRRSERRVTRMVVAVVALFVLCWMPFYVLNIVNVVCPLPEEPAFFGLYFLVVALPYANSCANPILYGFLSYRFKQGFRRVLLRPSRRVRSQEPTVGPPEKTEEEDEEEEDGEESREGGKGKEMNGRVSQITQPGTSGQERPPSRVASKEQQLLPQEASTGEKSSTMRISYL
assay.text: competitive radioligand binding
measured.attribute: pIC50
Scale: negative log10 of molar concentration, which is what pIC50 denotes.

Need pIC50 of SANSNPAMAPRERKAGCKNFFWKTFTSCC (disialo sugar chain attached Cys added after Cys28 (position 29); disulfide bond Cys17-Cys28) [29C(disialo)-SRIF28] , thanks.
8.15
